The reported numbers originate from PubChem BioAssay AID651640.

# Protocol Description: inhibitors of DENV2 cytopathic effect, primary screen, cell-based, plate reader, single concentration (AID 651640);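 also: 0% = median of neutral control wells and 100% = median of positive control wells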
# Experimental Parameters: DENV2-infected cells, cytopathic effect rescue, at 9.99 µM, hits give high values
Screen size: about 350,000 compounds; about 6,000 (1.7%) were called active. Roughly 5% stayed inconclusive and do not appear here. For the sample, actives were picked, then their nearest neighbours and some compounds at random.
Measured CPE inhibition, listed per entry.
Parameter: CPE inhibition (%)

{"Line Notation": "COc1ccccc1S(=O)(=O)N[C@@H]1C=C[C@H](CC(=O)NCc2cccc(F)c2)O[C@H]1CO", "Result Number": 41.8}
{"Line Notation": "C[C@H](CO)N1C[C@H](C)[C@H](CN(C)C(=O)Nc2ccc(C(F)(F)F)cc2)OCCCC[C@H](C)Oc2ccc(NC(=O)C3CCCCC3)cc2C1=O", "Result Number": 21.9}
{"Line Notation": "CO[C@@H]1CN(C)C(=O)c2ccc(NC(=O)NC(C)C)cc2OC[C@@H](C)N(C(=O)NC(C)C)C[C@H]1C", "Result Number": 9.11}
{"Line Notation": "C[C@@H]1CCCCO[C@@H](CN(C)C(=O)CCC(F)(F)F)[C@@H](C)CN([C@H](C)CO)C(=O)c2cc(NC(=O)CCC(F)(F)F)ccc2O1", "Result Number": 4.89}
{"Line Notation": "COC(=O)C[C@@H]1C=C[C@@H](NS(=O)(=O)c2cccc(OC)c2)[C@@H](CO)O1", "Result Number": 1.84}
{"Line Notation": "COc1cccc(S(=O)(=O)N[C@H]2C=C[C@@H](CC(=O)NCc3ccccc3)O[C@@H]2CO)c1", "Result Number": -4.65}
{"Line Notation": "C[C@@H](O)C#Cc1ccc([C@@H]2[C@@H](CO)N3CCCCN(C(=O)c4ccc(F)cc4)C[C@@H]23)cc1", "Result Number": 2.55}

====

# Protocol Description: inhibitors of DENV2 cytopathic effect, primary screen, cell-based, plate reader, single concentration (AID 651640);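 also: 0% = median of neutral control wells and 100% = median of positive control wells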
# Experimental Parameters: DENV2-infected cells, cytopathic effect rescue, at 9.99 µM
The whole screen tested about 350,000 compounds, of which about 6,000 (1.7%) were called active. Another 5% or so got no clear call; they are omitted. Cut-off read from the data, not from the text of the source: active = CPE inhibition above about 20% (passing the limit was not always enough); inconclusive = no clear call, values can overlap the other calls; tested in BHK-21 cells. The entries come from a sample that favours actives as a whole.
Possible outcomes: active, inactive

{"Line Notation": "Cc1cccc(-c2ccc([C@@H]3[C@@H](CO)N4CCCCN(S(=O)(=O)c5cccs5)C[C@H]34)cc2)c1", "Discrete Label": "active"}
{"Line Notation": "O=S(=O)(Cc1ccccc1)N1CCCCN2[C@@H](CO)[C@H](c3ccc(-c4ccccc4)cc3)[C@@H]2C1", "Discrete Label": "active"}
{"Line Notation": "CN1C(=O)c2cc(NC(=O)c3cccs3)ccc2OC[C@H]2O[C@@H](CC(=O)NCC3CC3)CC[C@@H]21", "Discrete Label": "inactive"}
{"Line Notation": "COc1cccc(-c2ccc([C@H]3[C@H](CO)N4CCCCN(S(=O)(=O)c5cccs5)C[C@@H]34)cc2)c1", "Discrete Label": "inactive"}
{"Line Notation": "CN(C)CC(=O)N1CCCCN2[C@@H](CO)[C@H](c3ccc(-c4cccnc4)cc3)[C@@H]2C1", "Discrete Label": "active"}
{"Line Notation": "C[C@@H](O)C#Cc1ccc([C@@H]2[C@H]3CN(C(=O)c4ccc5c(c4)OCO5)CCCCN3[C@H]2CO)cc1", "Discrete Label": "inactive"}
{"Line Notation": "C[C@H](O)C#Cc1ccc([C@H]2[C@H](CO)N3CCCCN(C(=O)c4ccc(F)cc4)C[C@@H]23)cc1", "Discrete Label": "active"}
{"Line Notation": "CCS(=O)(=O)N1CCCCN2[C@@H](CO)[C@@H](c3ccc(-c4ccccc4)cc3)[C@@H]2C1", "Discrete Label": "inactive"}

====

CPE inhibition reference
# Protocol Description: inhibitors of DENV2 cytopathic effect, primary screen, cell-based, plate reader, single concentration (AID 651640);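 also: 0% = median of neutral control wells and 100% = median of positive control wells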
# Experimental Parameters: DENV2-infected cells, cytopathic effect rescue, at 9.99 µM, hits give high values
In all, about 350,000 compounds went through this assay and about 6,000 (1.7%) were called active. About 5% were inconclusive and are not listed. The sample as a whole holds a higher share of actives than the screen did.

{"Line Notation": "O=C1CCC/C=C\\C[C@@H](CC(=O)N(CCO)Cc2ccccc2)C(=O)NCCO1", "CPE inhibition (%)": -1.93}
{"Line Notation": "C[C@@H](NC(=O)C[C@@H]1CC[C@@H](NC(=O)C2CCOCC2)[C@@H](CO)O1)c1ccccc1", "CPE inhibition (%)": 11.3}
{"Line Notation": "O=C1CCC/C=C/C[C@@H](CC(=O)N(CCO)Cc2ccccc2)C(=O)NC[C@H](c2ccccc2)O1", "CPE inhibition (%)": 85.4}
{"Line Notation": "COc1ccc(NC(=S)Nc2ccc(S(N)(=O)=O)cc2)c(C)c1", "CPE inhibition (%)": 5.31}
{"Line Notation": "COc1cc2c(cc1OC)C(Nc1ccc(S(N)(=O)=O)cc1)=NC(C)(C)C2", "CPE inhibition (%)": 23.5}
{"Line Notation": "O=C1NC[C@@H](c2ccccc2)OC(=O)[C@H](Cc2ccc(F)cc2)CC/C=C/C[C@H]1CC(=O)N(CCO)Cc1ccccc1", "CPE inhibition (%)": -5.29}
{"Line Notation": "C[C@H]1CCCCO[C@H](CN(C)S(=O)(=O)c2ccc(F)cc2)[C@@H](C)CN([C@@H](C)CO)C(=O)c2cc(NS(=O)(=O)c3cn(C)cn3)ccc2O1", "CPE inhibition (%)": 12.6}
{"Line Notation": "O=C(C[C@H]1C[C@H]2c3cc(NC(=O)Nc4ccc(F)cc4)ccc3O[C@H]2[C@H](CO)O1)NCC1CC1", "CPE inhibition (%)": -5.03}

====

# Protocol Description: inhibitors of DENV2 cytopathic effect, primary screen, cell-based, plate reader, single concentration (AID 651640);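 also: 0% = median of neutral control wells and 100% = median of positive control wells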
# Experimental Parameters: DENV2-infected cells, cytopathic effect rescue, at 9.99 µM, hits give high values
The campaign covered roughly 350,000 compounds. About 6,000 (1.7%) were called active. About 5% were inconclusive and are not listed. For the sample, actives were picked, then their nearest neighbours and some compounds at random.
CPE inhibition values by entry

{"Line Notation": "Cc1ccc(S(=O)(=O)N(C)C[C@@H]2Oc3ccc(NC(=O)NC4CCCCC4)cc3C(=O)N([C@@H](C)CO)C[C@H]2C)cc1", "CPE inhibition (%)": 23.4}
{"Line Notation": "Cc1ccc(S(=O)(=O)Nc2ccc3c(c2)C(=O)N([C@H](C)CO)C[C@H](C)[C@@H](CN(C)S(=O)(=O)c2cn(C)cn2)OCCCC[C@H](C)O3)cc1", "CPE inhibition (%)": 39.2}
{"Line Notation": "C[C@@H]1CN([C@H](C)CO)C(=O)c2cc(NC(=O)Cc3ccccc3)ccc2O[C@H]1CN(C)S(=O)(=O)c1cn(C)cn1", "CPE inhibition (%)": 0.292}
{"Line Notation": "C[C@@H]1CN([C@H](C)CO)C(=O)c2cc(NC(=O)NC3CCCCC3)ccc2O[C@H]1CN(C)S(C)(=O)=O", "CPE inhibition (%)": 2.68}
{"Line Notation": "C[C@@H]1CCCCO[C@@H](CN(C)S(=O)(=O)c2cn(C)cn2)[C@H](C)CN([C@H](C)CO)C(=O)c2cc(NS(=O)(=O)c3ccc(Cl)cc3)ccc2O1", "CPE inhibition (%)": 3.2}
{"Line Notation": "C[C@@H]1CCCCO[C@@H](CN(C)S(=O)(=O)c2cn(C)cn2)[C@H](C)CN([C@@H](C)CO)C(=O)c2cc(NC(=O)Nc3ccccc3)ccc2O1", "CPE inhibition (%)": -1.09}

====

# Protocol Description: inhibitors of DENV2 cytopathic effect, primary screen, cell-based, plate reader, single concentration (AID 651640);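 also: 0% = median of neutral control wells and 100% = median of positive control wells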
# Experimental Parameters: DENV2-infected cells, cytopathic effect rescue, at 9.99 µM
Among all 350,000 compounds or so, about 6,000 (1.7%) were called active. Not shown: some 5% with an inconclusive outcome. No stated cut-off is given here; in the data, active means CPE inhibition above about 20% (passing the limit was not always enough); inconclusive means no clear call, values can overlap the other calls; tested in BHK-21 cells. Shown is part of a subset that was picked to be rich in actives.
Labels: 1 = active, -1 = inactive

{"Line Notation": "C[C@@H]1CN([C@@H](C)CO)C(=O)Cc2cc(NC(=O)Nc3ccc(F)cc3)ccc2O[C@@H]1CN(C)S(=O)(=O)c1ccccc1", "Discrete Label": 1}
{"Line Notation": "C[C@@H]1CN([C@H](C)CO)C(=O)Cc2cc(NC(=O)C3CCCCC3)ccc2O[C@@H]1CN(C)Cc1ccc(C(F)(F)F)cc1", "Discrete Label": 1}
{"Line Notation": "C[C@H]1CN([C@@H](C)CO)C(=O)Cc2cc(NC(=O)Nc3ccc(F)cc3)ccc2O[C@H]1CN(C)S(=O)(=O)c1ccccc1", "Discrete Label": -1}
{"Line Notation": "C[C@@H]1CN([C@H](C)CO)C(=O)Cc2cc(NC(=O)Nc3ccccc3)ccc2O[C@@H]1CN(C)Cc1ccc(C(F)(F)F)cc1", "Discrete Label": -1}
